# ASSAY NOTES: blockers of mitochondrial fusion, WT vs mutant – cell-based, chemical genetic, wild-type and mutant, confirmation (AID 1361)
# CONDITION DETAILS: Cell-based mitochondrial fusion phenotype, imaging, WT cells
Active and inactive are the calls of the source. The rule behind the calls is not given here.
REPORTED METRIC: IC50

# COMPOUND, MEASURED VALUE
records = [
    ("Cc1nn(C(C)(C)C)c(OC(=O)c2ccc3c(c2)OCO3)c1Sc1ccccc1", "8.28 µM"),
    ("CCCCSc1nnc(CNC(=O)C23CC4CC(CC(C4)C2)C3)n1Cc1ccccc1", "> 25 µM (inactive)"),
    ("O=C(C1=C[C@@H](c2csc3ccccc23)C[C@@H](OCc2ccc(CO)cc2)O1)N1CCN(Cc2ccccc2)CC1", "5.83 µM"),
    ("O=[N+]([O-])c1ccccc1/C=N/n1c(C2CCCCC2)n[nH]c1=S", "> 25 µM (inactive)"),
    ("Cc1cc(C)nc(N2CCCC(C(=O)NCc3cccs3)C2)n1 (stereo not given)", "> 25 µM (inactive)"),
    ("Cc1ccc(C(C(=O)NC2CCCCC2)N(Cc2ccco2)C(=O)Cc2c[nH]c3ccccc23)o1 (stereo not given)", "21.2 µM"),
    ("Cc1nn(C(C)(C)C)c(OC(=O)c2cccs2)c1Sc1ccccc1", "22.1 µM"),
    ("Cc1cc(C)c2nc(C(F)(F)F)nc(N3CC(C)OC(C)C3)c2c1 (stereo not given)", "> 25 µM (inactive)"),
    ("COc1ccc(Cc2nc3ccc(S(=O)(=O)N4CCOCC4)cc3[nH]2)cc1", "> 25 µM (inactive)"),
    ("COC(=O)c1ccn(C(=O)c2ccc(Cl)cc2)n1", "> 25 µM (inactive)"),
]

* * *

# ASSAY NOTES: blockers of mitochondrial fusion, WT vs mutant – cell-based, chemical genetic, wild-type and mutant, confirmation (AID 1361)
# CONDITION DETAILS: Cell-based mitochondrial fusion phenotype, imaging, WT cells
Activity calls are given as the source filed them. How the calls were made is not given here.
Labels: yes (1) (active), no (0) (inactive)

# MOLECULE, CATEGORY LABEL
data = [
    ("COC(=O)CN(c1ccc2c(c1)OCCO2)S(=O)(=O)c1ccccc1", "no (0)"),
    ("NC(=O)NCCC1=CCCCC1", "no (0)"),
    ("c1ccc(-c2[nH]c(-c3ccccc3)[n+](CC3CO3)c2-c2ccccc2)cc1 (stereo not drawn)", "yes (1)"),
    ("CC1CCc2c(sc(NC(=O)COC(=O)c3ccc(O)cc3)c2C#N)C1 (stereo not drawn)", "no (0)"),
    ("CCOC(=O)c1cnc(-c2ccccc2)nc1-c1ccccc1", "no (0)"),
    ("CCC(=O)Nc1ccc(-c2nnc(SCc3ccc(C(=O)Nc4nccs4)cc3)n2CC)cc1", "no (0)"),
    ("CCCC1(CCC)NC(=O)N(CC(=O)Nc2cccc(OC)c2)C1=O", "no (0)"),
    ("O=C(Nc1ccc2c(c1)nc1n2CCN(Cc2ccccc2)C1)c1cccs1", "no (0)"),
    ("COc1ccc(C(=NNc2ccccc2C(=O)O)c2ccc(OC)cc2)cc1", "yes (1)"),
    ("O=C(Nc1ccccc1Sc1ccccc1)c1ccc(F)cc1", "no (0)"),
    ("CC(C)(C)n1nnnc1C(c1cccs1)N(Cc1cccnc1)Cc1ccccc1Cl (stereo not drawn)", "yes (1)"),
    ("O=C(CCc1nc(-c2ccccc2)no1)NCCc1ccccc1", "no (0)"),
    ("Cc1cc(C)n(-c2nc(C)nc3c2cnn3-c2ccccc2)n1", "no (0)"),
    ("Oc1cccc(C(O)CNCc2ccc(OCc3ccc(Cl)cc3Cl)cc2)c1 (stereo not drawn)", "yes (1)"),
    ("Cc1ccccc1C(=O)Oc1ccc(Sc2ccc(O)cc2)cc1", "yes (1)"),
    ("COC(=O)c1ccc(CSc2nc3ccccc3c(=O)n2CC(C)C)o1", "no (0)"),
    ("Cc1nn(-c2ccccc2)c2sc(C(=O)N(Cc3ccco3)C(C)C(=O)NC(C)(C)C)cc12 (stereo not drawn)", "yes (1)"),
    ("Cc1oc(-c2ccccc2F)nc1CN1CCC(C(=O)NCCC2=CCCCC2)CC1", "no (0)"),
    ("Cc1ccc2nc(N/N=C/c3ccccc3F)nc(-c3ccccc3)c2c1", "yes (1)"),
    ("COCCCNC(=O)CS(=O)(=O)Cc1nc(-c2cccc(OC)c2)oc1C", "no (0)"),
    ("Cc1ccc(CC2SC(=Nc3ccccc3)N(c3ccccc3)C2=O)cc1 (stereo not drawn)", "yes (1)"),
    ("COc1cc(CNn2cn[nH]c2=S)cc(Br)c1OCc1ccccc1F", "yes (1)"),
    ("CCN(CC)CCNC(=O)Cn1nc(Cc2ccccc2)c2ccccc2c1=O", "no (0)"),
]
